Molecular target: TF/FVIIa (Homo sapiens)
Sequence (P08709 213-466 limits assumed): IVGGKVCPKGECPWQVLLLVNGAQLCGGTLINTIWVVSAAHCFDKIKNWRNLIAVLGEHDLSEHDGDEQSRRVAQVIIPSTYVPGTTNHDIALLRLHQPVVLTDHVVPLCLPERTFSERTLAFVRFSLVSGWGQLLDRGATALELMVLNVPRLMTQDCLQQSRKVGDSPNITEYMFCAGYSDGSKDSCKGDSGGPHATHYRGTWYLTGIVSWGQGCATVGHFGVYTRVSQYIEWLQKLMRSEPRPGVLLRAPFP
Sequence (P08709 61-212 limits assumed): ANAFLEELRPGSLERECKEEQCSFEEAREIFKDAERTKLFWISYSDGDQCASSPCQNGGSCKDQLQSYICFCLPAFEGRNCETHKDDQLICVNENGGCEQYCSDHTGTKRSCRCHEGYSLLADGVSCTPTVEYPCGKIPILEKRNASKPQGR
Sequence (P13726 33-295 partner): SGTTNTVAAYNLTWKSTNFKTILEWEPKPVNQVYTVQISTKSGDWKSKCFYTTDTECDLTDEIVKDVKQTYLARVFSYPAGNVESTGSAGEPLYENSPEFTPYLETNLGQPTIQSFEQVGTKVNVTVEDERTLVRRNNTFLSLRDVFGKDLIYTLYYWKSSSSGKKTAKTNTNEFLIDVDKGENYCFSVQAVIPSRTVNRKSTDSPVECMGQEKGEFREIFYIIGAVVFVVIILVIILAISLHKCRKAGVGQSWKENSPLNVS
Assay: In vitro amidolytic assay for inhibition of TF/FVIIa (Spectrozyme-FVIIa, pNA absorbance at OD405)
pIC50: −log10 of the molar value.
MEASURED_METRIC: pIC50

SMILES_ENTRY: CC(C)CNC(=O)c1ccc(-c2ccc(-c3ccncc3)cc2C(=O)Nc2ccc(C(=N)N)cc2)c(C(=O)O)c1
OBSERVED: < 7.00
--
SMILES_ENTRY: CC(C)CNC(=O)c1ccc(-c2cc(-c3cccs3)ccc2C(=O)Nc2ccc(C(=N)N)cc2)c(C(=O)O)c1
OBSERVED: < 7.00
--
SMILES_ENTRY: CC(C)CNC(=O)c1ccc(-c2ccc(-c3nccs3)cc2C(=O)Nc2ccc(C(=N)N)cc2)c(C(=O)O)c1
OBSERVED: < 7.00
--
SMILES_ENTRY: C#CCNC(=O)c1ccc(-c2ccc(-c3ccco3)cc2C(=O)Nc2ccc(C(=N)N)cc2)c(C(=O)O)c1
OBSERVED: > 7.00
--
SMILES_ENTRY: C=Cc1ccc(-c2ccc(C(=O)NCC(C)C)cc2C(=O)O)c(C(=O)Nc2ccc(C(=N)N)cc2)c1
OBSERVED: > 7.00
--
SMILES_ENTRY: CC(C)CNC(=O)c1ccc(-c2ccc(C#CC(C)(C)O)cc2C(=O)Nc2ccc(C(=N)N)cc2)c(C(=O)O)c1
OBSERVED: < 7.00
--
SMILES_ENTRY: CC(C)CNC(=O)c1ccc(-c2ccc(-c3ccc(CO)s3)cc2C(=O)Nc2ccc(C(=N)N)cc2)c(C(=O)O)c1
OBSERVED: < 7.00
--
SMILES_ENTRY: CC(C)CNC(=O)c1ccc(-c2cc(Oc3ccccc3)ccc2C(=O)Nc2ccc(C(=N)N)cc2)c(C(=O)O)c1
OBSERVED: < 6.00
--
SMILES_ENTRY: C=Cc1ccc(-c2ccc(C(=O)NC(CCC)CCC)cc2C(=O)O)c(C(=O)Nc2ccc(C(=N)N)cc2)c1
OBSERVED: > 7.00
--
SMILES_ENTRY: N=C(N)c1ccc(NC(=O)c2cc(-c3ccco3)ccc2-c2ccc(C(=O)NCCCCCC(=O)O)cc2C(=O)O)cc1
OBSERVED: > 7.00
